Assay: Quantitative High-Throughput drug screen in 47 multiple myeloma cell lines against the NCATS MIPE library collection: PE2_PLB cell viability assay (AID 1919869); further: nearly all actives have a fitted effect of over 35% in size
Conditions: PE2_PLB myeloma cells viability, ATP luminescence, 48 h; series mostly up to 45.8 µM
Inconclusive results are not listed. The source made the active and inactive calls. The call rests on the fitted dose curve; in most records, active means well fitted cell-killing curve with a large enough effect; inconclusive means small, poorly fitted or top-dose-only effect, or effect the other way; inactive means no such curve, though single readings can be large or run the other way.
Outcome codes: class 1 = active, class 0 = inactive

- molecule: "CCOC(=O)O[C@]1(C(=O)OCCl)CC[C@@H]2[C@H]3CCC4=CC(=O)C=C[C@]4(C)[C@@H]3[C@@H](O)C[C@@]21C"
  className: "class 0"
- molecule: "CC(C)(C)c1cc(C(=O)O)c(NC(=O)Nc2ccc3[nH]ncc3c2)s1"
  className: "class 1"
- molecule: "O=c1cc(-c2ccc(O)cc2)oc2cc(O)cc(O)c12"
  className: "class 1"
- molecule: "CCNc1cc(NC2CCC(O)CC2)nc(Nc2ccc3c(ccn3Cc3ccccc3)c2)n1 (stereo unspecified)"
  className: "class 1"
- molecule: "Cc1ccn(-c2ccc(-c3ncco3)cc2)c(=O)c1-c1ccc2nc(N)ncc2c1"
  className: "class 1"
- molecule: "CC[C@@H]1C=C(C)C[C@H](C)C[C@H](OC)[C@H]2O[C@@](O)(C(=O)C(=O)N3CCCC[C@@H]3C(=O)O[C@H](C(C)=C[C@@H]3CC[C@H](Cl)[C@H](OC)C3)[C@H](C)[C@@H](O)CC1=O)[C@H](C)C[C@H]2OC"
  className: "class 1"
- molecule: "NS(=O)(=O)c1ccc(NC2=CC(=O)c3ccccc3C2=O)cc1"
  className: "class 1"
- molecule: "O=C(OCC#CCSc1nnc(-c2cccc3ccccc23)o1)c1cc2ccccc2s1"
  className: "class 0"
- molecule: "COc1cccc(-c2cc(=O)c3ccccc3o2)c1N"
  className: "class 1"
- molecule: "CC(C)OC(=O)CCCC=CC[C@@H]1[C@H](C=C[C@@H](O)COc2cccc(C(F)(F)F)c2)[C@H](O)C[C@@H]1O"
  className: "class 1"
- molecule: "O=C(Nc1ccccc1-c1cn2c(CN3CCNCC3)csc2n1)c1cnc2ccccc2n1"
  className: "class 1"
- molecule: "NC(=O)c1cccc2[nH]c(-c3ccc([C@H]4CCCN4)cc3F)nc12"
  className: "class 1"
- molecule: "O=C1NC(=O)C(=Cc2ccc(-c3ccc(F)cc3)o2)S1"
  className: "class 1"
- molecule: "O=c1c(-c2ccc(O)cc2)coc2cc(OC3O[C@H](CO)[C@H](O)[C@H](O)[C@H]3O)cc(O)c12 (stereo partly specified)"
  className: "class 1"
- molecule: "O=C(CCCCCCC(=O)Nc1ccccc1)NO"
  className: "class 1"
- molecule: "Clc1ccc(CCC(Cn2ccnc2)Sc2c(Cl)cccc2Cl)cc1 (stereo unspecified)"
  className: "class 1"
